EXPERIMENTAL TARGET: MAO–B (Rattus norvegicus, UniProt P19643)
Construct: the obtained SD rat liver mitochondrial concentrate was the experimental monoamine oxidase stock solution; from tissue; host or cells: male SD rat liver mitochondria
Sequence (P19643 1-520): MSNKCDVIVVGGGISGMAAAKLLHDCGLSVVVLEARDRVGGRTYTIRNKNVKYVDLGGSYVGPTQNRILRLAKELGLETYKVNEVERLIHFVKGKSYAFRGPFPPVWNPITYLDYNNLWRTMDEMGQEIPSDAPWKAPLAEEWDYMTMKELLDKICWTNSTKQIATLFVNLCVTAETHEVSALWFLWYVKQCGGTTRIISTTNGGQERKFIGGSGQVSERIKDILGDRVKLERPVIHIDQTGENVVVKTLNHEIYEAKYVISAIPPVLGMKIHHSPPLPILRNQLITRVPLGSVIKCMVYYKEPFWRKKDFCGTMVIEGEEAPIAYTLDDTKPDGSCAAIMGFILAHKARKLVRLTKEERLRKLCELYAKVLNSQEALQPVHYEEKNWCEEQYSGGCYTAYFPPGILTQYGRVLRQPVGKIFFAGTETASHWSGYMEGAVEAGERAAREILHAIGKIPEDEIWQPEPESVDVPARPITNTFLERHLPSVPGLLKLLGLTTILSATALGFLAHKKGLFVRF
ASSAY EXPLANATION: MAO–B inhibitory activity (enzyme pre-incubated with chlorgiline)
Type: biochemical
pIC50: −log10 of the molar value.
MEASURED ENDPOINT: pIC50

>>> df
                                   compound  measured_endpoint  observed_measurement
0  O=C(CN1CCc2ccccc2[C@H]1c1ccccc1)Nc1nc2c(Br)cccc2s1 [Compound 4d]              pIC50                  5.49
1  O=C(CN1CCc2ccccc2[C@H]1c1ccccc1)Nc1nc2ccc(Cl)cc2s1 [Compound 4c]              pIC50                  5.04
2  O=C(CN1CCc2ccccc2[C@H]1c1ccccc1)Nc1nc2ccc(Br)cc2s1 [Compound 4f]              pIC50                  4.32
3  O=C(CN1CCc2ccccc2[C@H]1c1ccccc1)Nc1nc2cc(Cl)ccc2s1 [Compound 4b]              pIC50                  4.39
4  Cc1ccc2nc(NC(=O)CN3CCc4ccccc4[C@H]3c3ccccc3)sc2c1 [Compound 4i]              pIC50                  4.78
5  Cc1cccc2sc(NC(=O)CN3CCc4ccccc4[C@H]3c3ccccc3)nc12 [Compound 4g]              pIC50                  4.92

###

pIC50: −log10 of the molar value.
Quick record: pIC50, BuChE (Homo sapiens, UniProt P06276).
MEASURED ENDPOINT: pIC50

In [3]: df
Out[3]:
                                smiles_repr  measured_endpoint  qualifier_operator  observed_measurement
0  O=C(CN1CCc2ccccc2[C@H]1c1ccccc1)Nc1nc2cc(Cl)ccc2s1              pIC50                   =                  4.75
1  O=C(CN1CCc2ccccc2[C@H]1c1ccccc1)Nc1nc2c(Br)cccc2s1              pIC50                   =                  4.84
2  O=C(CN1CCc2ccccc2[C@H]1c1ccccc1)Nc1nc2ccc(F)cc2s1              pIC50                   =                  4.30
3  Cc1ccc2sc(NC(=O)CN3CCc4ccccc4[C@H]3c3ccccc3)nc2c1              pIC50                   =                  4.94
4  O=C(CN1CCc2ccccc2[C@H]1c1ccccc1)Nc1nc2ccc(Cl)cc2s1              pIC50                   <                  3.82
5  O=C(CN1CCc2ccccc2[C@H]1c1ccccc1)Nc1nc2c(Br)cc(Br)cc2s1              pIC50                   =                  4.57
6  O=C(CN1CCc2ccccc2[C@H]1c1ccccc1)Nc1nc2ccc([N+](=O)[O-])cc2s1              pIC50                   =                  4.91
7  O=C(CN1CCc2ccccc2[C@H]1c1ccccc1)Nc1nc2c(Cl)cccc2s1              pIC50                   <                  3.82
